Target: T1, recombinant monomeric human TIGIT-His (human, UniProt Q495A1 22-141)
T1 construct: also called hTIGIT; not shown: His tag
T1 sequence: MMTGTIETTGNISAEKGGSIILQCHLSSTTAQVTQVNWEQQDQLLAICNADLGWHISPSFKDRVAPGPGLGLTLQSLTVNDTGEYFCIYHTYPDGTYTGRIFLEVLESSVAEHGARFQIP
Assay: BLI (Octet QKe), antibody on AHC sensor, several concentrations of human TIGIT-His, 1:1 global fit, average
Quick list: kon per entry.

binder: MAB4-IgG4 (antibody, V domains shown) VH: QLQLQESGPGLVKPSETLSLTCTVSGGSISSTSHYWGWIRQPPGKGLEWIGSIYYSGSTFYNPSLKSRVTISVDTSKNQFSLKLSSVTAADTAVYYCARDANYYGGAWAFDPWGQGTLVTVSS VL: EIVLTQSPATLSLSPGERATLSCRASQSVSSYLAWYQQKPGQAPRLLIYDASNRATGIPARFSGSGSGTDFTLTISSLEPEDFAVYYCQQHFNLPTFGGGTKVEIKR
value unit: M⁻¹ s⁻¹
kon: 700000
--
binder: MAB2-IgG4 (antibody, V domains shown) VH: QLQLQESGPGLVKPSETLSLTCTVSGGSISSSKYYWGWIRQPPGKGLEWIGSIYYSGSTFYNPSLKSRVTISVDTSKNQFSLKLSSVTAADTAVYYCARDANYYGSAWAFDPWGQGTLVTVSS VL: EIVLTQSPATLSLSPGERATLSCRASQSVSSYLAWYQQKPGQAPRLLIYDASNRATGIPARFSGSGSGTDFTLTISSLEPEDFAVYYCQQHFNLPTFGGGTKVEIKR
value unit: M⁻¹ s⁻¹
kon: 320000
--
binder: MAB21-IgG4 (antibody, V domains shown) VH: QVQLVQSGAEVKKPGASVKVSCKASGYTFTSHYMGWVRQAPGQGLEWMGIINPSMGATSYTQKFRGRVTMTRDTSTSTVYMELSSLRSEDTAVYYCARLHVSGSYYPAYLDYWGQGTMVTVSS VL: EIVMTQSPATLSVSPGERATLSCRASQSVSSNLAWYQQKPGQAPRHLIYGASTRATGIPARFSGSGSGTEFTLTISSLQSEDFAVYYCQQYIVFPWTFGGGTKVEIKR
value unit: M⁻¹ s⁻¹
kon: 1.4e+06
